Sourced from paper PMC10700596

assay: in vivo; assay type: in vivo, mice; conditions: male, CD-1, mouse, plasma, po, 30 mg/kg, mice, PO 30 mg/kg, plasma, 120 min, single animals; read-out: Plasma concentration, Final (individual mouse)
observed-property: concentration at 120 min (ng/mL)
One number for each entry, in ng/mL.

// returns reported concentration at 120 min for input O=C([O-])C1CCC2(CC1)CC(Nc1ncnc3[nH]c4c(F)cccc4c13)C2.[Na+] (stereo not shown)
11600

###

test: in vivo; assay type: in vivo, mice; conditions: male, CD-1, mouse, plasma, iv, 10 mg/kg, mice, IV 10 mg/kg, plasma, 30 min, single animals; read-out: Plasma concentration, Final (individual mouse)
observed-property: concentration at 30 min
# number then unit; no other words

// returns reported concentration at 30 min for input O=C([O-])C1CCC2(CC1)CC(Nc1ncnc3[nH]c4c(F)cccc4c13)C2.[Na+] (stereo not shown) [Compound 77]
10900 ng/mL

###

assay: in vivo; format: in vivo, mice; conditions: male, CD-1, mouse, plasma, ip, 10 mg/kg, mice, IP 10 mg/kg, plasma, 360 min, mean of 3 animals; read-out: Plasma concentration C (mean)
observed-property: concentration at 360 min (µg/mL)
One number for each entry, in µg/mL.

// returns reported concentration at 360 min for input O=C([O-])C1CCC2(CC1)CC(Nc1ncnc3[nH]c4c(F)cccc4c13)C2.[Na+] (stereo not shown) [Compound 77]
1.98

###

experiment: in vivo; assay type: in vivo, mice; details: male, CD-1, mouse, plasma, ip, 10 mg/kg, mice, IP 10 mg/kg, plasma, 240 min, mean; read-out: Plasma concentrations of cmpd 7827_0016 in mice following IP (10 mg/kg) administration, C
observed-property: concentration at 240 min (ng/mL)
Answers are plain numbers, in ng/mL.

// returns reported concentration at 240 min for input O=C(O)C1CCC2(CC1)CC(Nc1ncnc3[nH]c4c(F)cccc4c13)C2 (stereo not shown)
1220

###

assay: in vivo; assay type: in vivo, mice; conditions: male, CD-1, mouse, brain, ip, 10 mg/kg, mice, IP 10 mg/kg, brain, 5 min, mean; read-out: Brain concentrations of cmpd 7827_0016 in mice following IP (10 mg/kg) administration, C
observed-property: concentration at 5 min (ng/g)
One number for each entry, in ng/g.

// returns reported concentration at 5 min for input O=C(O)C1CCC2(CC1)CC(Nc1ncnc3[nH]c4c(F)cccc4c13)C2 (stereo not shown)
61.1

###

assay: in vivo; assay type: in vivo, mice; conditions: male, CD-1, mouse, plasma, po, 30 mg/kg, mice, PO 30 mg/kg, plasma, 5 min; read-out: Plasma concentration C (mean)
observed-property: concentration at 5 min
# number then unit; no other words

// returns reported concentration at 5 min for input O=C([O-])C1CCC2(CC1)CC(Nc1ncnc3[nH]c4c(F)cccc4c13)C2.[Na+] (stereo not shown) [Compound 77]
4340 ng/mL

###

test: in vivo; format: in vivo, mice; details: male, CD-1, mouse, plasma, ip, 10 mg/kg, mice, IP 10 mg/kg, plasma, 60 min, mean; read-out: Plasma concentrations of cmpd 7827_0016 in mice following IP (10 mg/kg) administration, C
observed-property: concentration at 60 min (ng/mL)
Answers are plain numbers, in ng/mL.

// returns reported concentration at 60 min for input O=C(O)C1CCC2(CC1)CC(Nc1ncnc3[nH]c4c(F)cccc4c13)C2 (stereo not shown)
6670
